# Assay target: Mitogen-activated protein kinase 7 (Homo sapiens, UniProt Q13164)
# Sequence (Q13164 whole entry, the tested form may be a part): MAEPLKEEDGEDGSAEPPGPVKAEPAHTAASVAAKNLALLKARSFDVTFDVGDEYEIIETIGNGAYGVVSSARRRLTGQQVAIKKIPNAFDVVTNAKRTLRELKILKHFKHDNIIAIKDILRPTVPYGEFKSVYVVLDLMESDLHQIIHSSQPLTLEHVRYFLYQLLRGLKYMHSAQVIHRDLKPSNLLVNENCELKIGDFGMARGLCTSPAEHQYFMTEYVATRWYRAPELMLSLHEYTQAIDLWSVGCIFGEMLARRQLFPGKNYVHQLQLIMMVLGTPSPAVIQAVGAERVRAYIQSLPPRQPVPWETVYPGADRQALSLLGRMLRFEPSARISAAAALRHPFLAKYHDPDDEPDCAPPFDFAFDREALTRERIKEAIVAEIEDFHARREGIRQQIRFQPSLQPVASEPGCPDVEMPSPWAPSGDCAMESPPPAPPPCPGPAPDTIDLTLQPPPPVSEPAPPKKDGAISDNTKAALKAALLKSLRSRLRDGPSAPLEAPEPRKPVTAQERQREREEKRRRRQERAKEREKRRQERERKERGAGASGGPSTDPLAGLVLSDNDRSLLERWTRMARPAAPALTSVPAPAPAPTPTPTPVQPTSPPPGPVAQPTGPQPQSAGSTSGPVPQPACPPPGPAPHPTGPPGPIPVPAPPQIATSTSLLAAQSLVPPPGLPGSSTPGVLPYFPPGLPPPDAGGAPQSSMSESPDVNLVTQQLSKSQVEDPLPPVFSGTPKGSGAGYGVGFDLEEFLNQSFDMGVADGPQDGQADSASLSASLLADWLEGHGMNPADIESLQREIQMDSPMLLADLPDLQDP
# Assay details: Inhibition of recombinant human N-terminal FLAG-tagged/C-terminal His8 fused ERK5 internal fragment domain (L5 to Q397 residues) expressed in Sf9 insect ells using RBER-CHKtide as substrate measured after 60 mins in presence of [gamma-33P]-ATP by scintillation counting method
Readout kind: pIC50
FYI, pIC50 means -log10 of a concentration in mol per litre.

The reported value for CN(CCc1ccc(-c2ccccc2)cc1)Cc1cn(C)c2ccc(C(=O)Nc3ccc(F)cc3)cc12 in terms of pIC50 is 4.05

* * *

# Assay target: Platelet-derived growth factor receptor beta (Homo sapiens)
# Sequence (P09619 whole entry, the tested form may be a part): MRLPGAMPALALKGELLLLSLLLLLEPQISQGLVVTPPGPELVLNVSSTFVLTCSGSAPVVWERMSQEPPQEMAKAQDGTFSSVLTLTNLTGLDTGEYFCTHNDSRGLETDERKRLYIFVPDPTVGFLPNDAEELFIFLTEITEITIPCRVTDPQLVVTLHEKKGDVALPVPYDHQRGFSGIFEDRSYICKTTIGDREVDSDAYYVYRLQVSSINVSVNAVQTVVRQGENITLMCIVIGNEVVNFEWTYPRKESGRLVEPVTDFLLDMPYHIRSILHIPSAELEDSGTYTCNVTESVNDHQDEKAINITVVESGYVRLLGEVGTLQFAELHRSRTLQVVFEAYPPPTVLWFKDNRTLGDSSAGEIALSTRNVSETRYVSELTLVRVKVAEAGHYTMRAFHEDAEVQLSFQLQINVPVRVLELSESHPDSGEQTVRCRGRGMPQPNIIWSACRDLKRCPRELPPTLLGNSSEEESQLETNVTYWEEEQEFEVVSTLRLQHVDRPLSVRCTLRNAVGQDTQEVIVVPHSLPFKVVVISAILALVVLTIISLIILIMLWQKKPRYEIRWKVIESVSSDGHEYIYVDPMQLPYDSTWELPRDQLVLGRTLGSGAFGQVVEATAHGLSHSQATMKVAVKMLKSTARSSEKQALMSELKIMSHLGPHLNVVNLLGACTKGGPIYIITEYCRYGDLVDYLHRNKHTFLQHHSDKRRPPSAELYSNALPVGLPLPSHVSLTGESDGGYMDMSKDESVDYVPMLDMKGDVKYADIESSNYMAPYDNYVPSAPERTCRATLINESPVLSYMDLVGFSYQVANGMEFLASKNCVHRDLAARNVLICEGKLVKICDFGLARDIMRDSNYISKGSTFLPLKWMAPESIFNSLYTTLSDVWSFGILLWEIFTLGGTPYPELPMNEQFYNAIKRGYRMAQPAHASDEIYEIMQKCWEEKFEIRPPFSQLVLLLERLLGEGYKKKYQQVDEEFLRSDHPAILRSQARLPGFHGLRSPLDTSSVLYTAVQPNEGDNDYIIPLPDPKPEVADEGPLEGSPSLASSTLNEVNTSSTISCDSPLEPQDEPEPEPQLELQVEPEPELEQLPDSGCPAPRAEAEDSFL
# Assay details: Inhibition of recombinant human N-terminal GST-His6-fused PDGFR-beta C-terminal domain (R561 to L1106 residues) expressed in Sf9 insect cells using Poly(Ala,Glu,Lys,Tyr)6:2:5:1 as substrate measured after 60 mins in presence of [gamma-33P]-ATP by scintillation counting method
Readout kind: IC50 (µM)
Number in µM, nothing else.

The reported value for CN(CCc1ccc(-c2ccccc2)cc1)Cc1cn(C)c2ccc(C(=O)Nc3ccc(F)cc3)cc12 in terms of IC50 is 81
